# SETUP_CONDITIONS: in cyclohexanone, 313.15 K
QUANTITY_MEASURED: solubility (mole fraction)

Identify the reported solubility (mole fraction) for the following entry. "OCc1ccc(O[C@@H]2O[C@H](CO)[C@@H](O)[C@H](O)[C@H]2O)cc1"
0.00455

----------
# SETUP_CONDITIONS: in ethyl acetate, 303.15 K
QUANTITY_MEASURED: solubility (mole fraction)
Form field (numeric): enter value without unit.

Report solubility (mole fraction) for "OCc1ccc(O[C@@H]2O[C@H](CO)[C@@H](O)[C@H](O)[C@H]2O)cc1"
0.00418

----------
# SETUP_CONDITIONS: in cyclohexanone, 283.15 K
QUANTITY_MEASURED: solubility (mole fraction)
Form rule: numeric answer, no unit written next to it.

Retrieve solubility (mole fraction) measured for "OCc1ccc(O[C@@H]2O[C@H](CO)[C@@H](O)[C@H](O)[C@H]2O)cc1" and print it.
0.00185

----------
# SETUP_CONDITIONS: in n-butanol, 273.15 K
QUANTITY_MEASURED: solubility (mole fraction)
# print the numeric value only

Quickly give me recorded solubility (mole fraction) for "OCc1ccc(O[C@@H]2O[C@H](CO)[C@@H](O)[C@H](O)[C@H]2O)cc1"
0.0368

----------
# SETUP_CONDITIONS: in toluene, 278.15 K
QUANTITY_MEASURED: solubility (mole fraction)
Reply with just the number.

Quick one: give measured solubility (mole fraction) for "OCc1ccc(O[C@@H]2O[C@H](CO)[C@@H](O)[C@H](O)[C@H]2O)cc1"
0.0018

----------
# SETUP_CONDITIONS: in ethanol, 278.15 K
QUANTITY_MEASURED: solubility (mole fraction)
Answer using only a numeral; do not append any unit.

Name the recorded solubility (mole fraction) of the compound listed here: "OCc1ccc(O[C@@H]2O[C@H](CO)[C@@H](O)[C@H](O)[C@H]2O)cc1"
0.00105

----------
# SETUP_CONDITIONS: in cyclohexanone, 273.15 K
QUANTITY_MEASURED: solubility (mole fraction)
Number only, no unit.

Complete the entry with solubility (mole fraction) for "OCc1ccc(O[C@@H]2O[C@H](CO)[C@@H](O)[C@H](O)[C@H]2O)cc1"
0.00128

----------
# SETUP_CONDITIONS: in isopropanol, 278.15 K
QUANTITY_MEASURED: solubility (mole fraction)
The answer should be written as a number, with no unit following it.

Report solubility (mole fraction) for "OCc1ccc(O[C@@H]2O[C@H](CO)[C@@H](O)[C@H](O)[C@H]2O)cc1"
0.00139

----------
# SETUP_CONDITIONS: in isopropanol, 283.15 K
QUANTITY_MEASURED: solubility (mole fraction)
Give the figure only, with no unit attached.

Give me measured solubility (mole fraction), please, for this compound: "OCc1ccc(O[C@@H]2O[C@H](CO)[C@@H](O)[C@H](O)[C@H]2O)cc1"
0.00169

----------
# SETUP_CONDITIONS: in 1,4-dioxane, 303.15 K
QUANTITY_MEASURED: solubility (mole fraction)
Reply with the value as a number alone.

Look up and state reported solubility (mole fraction) for "OCc1ccc(O[C@@H]2O[C@H](CO)[C@@H](O)[C@H](O)[C@H]2O)cc1"
0.00493
